Kindly supply the reported pKi values for the records listed here.
Target: Serotonin 3 (5-HT3) receptor (Rattus norvegicus, UniProt P35563+Q9JJ16)
Sequence (P35563 whole entry): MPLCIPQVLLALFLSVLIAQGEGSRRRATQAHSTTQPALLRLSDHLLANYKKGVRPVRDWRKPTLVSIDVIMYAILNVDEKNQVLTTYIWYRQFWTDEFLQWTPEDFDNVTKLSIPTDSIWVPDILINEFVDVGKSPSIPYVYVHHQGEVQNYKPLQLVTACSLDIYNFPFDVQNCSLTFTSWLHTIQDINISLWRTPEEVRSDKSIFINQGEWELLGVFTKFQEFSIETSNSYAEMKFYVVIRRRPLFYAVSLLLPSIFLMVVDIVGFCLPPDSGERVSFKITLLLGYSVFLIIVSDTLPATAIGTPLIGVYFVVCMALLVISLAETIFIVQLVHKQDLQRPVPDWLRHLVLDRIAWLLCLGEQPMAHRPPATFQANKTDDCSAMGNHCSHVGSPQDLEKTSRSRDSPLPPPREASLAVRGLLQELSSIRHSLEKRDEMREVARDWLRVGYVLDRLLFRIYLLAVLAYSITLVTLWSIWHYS
Sequence (Q9JJ16 whole entry): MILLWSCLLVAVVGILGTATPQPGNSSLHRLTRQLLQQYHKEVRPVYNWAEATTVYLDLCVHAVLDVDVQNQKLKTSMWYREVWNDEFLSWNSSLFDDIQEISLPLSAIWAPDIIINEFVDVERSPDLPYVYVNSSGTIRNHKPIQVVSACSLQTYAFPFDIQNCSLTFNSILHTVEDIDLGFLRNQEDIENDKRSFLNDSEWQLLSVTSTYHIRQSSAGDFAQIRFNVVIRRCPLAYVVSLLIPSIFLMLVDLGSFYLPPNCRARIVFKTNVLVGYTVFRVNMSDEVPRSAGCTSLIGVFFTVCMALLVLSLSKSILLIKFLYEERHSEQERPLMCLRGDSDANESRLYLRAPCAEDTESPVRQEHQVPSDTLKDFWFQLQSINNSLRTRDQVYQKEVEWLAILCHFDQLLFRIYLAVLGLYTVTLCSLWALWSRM
Assay: Concentration that inhibits the binding of radioligand, [3H]-ICS 205930, to 5-hydroxytryptamine 3 receptor from rat cortex
Answers are plain numbers, as −log10 of the molar value.

These recorded examples may help you get a feel for the data.
* CN1C2CCC1CC(NC(=O)n1c(=O)n(C)c3ccccc31)C2 (stereo unspecified) | 8.77
* O=C(OC1CCNCC1)n1c(=O)[nH]c2ccccc21 | 7.14
* Cc1cccc2c1[nH]c(=O)n2C(=O)OC1CC2CCC(C1)N2C (stereo unspecified) | 8.10
* CCn1c(=O)n(C(=O)NC2CC3CCC(C2)N3C)c2ccccc21 (stereo unspecified) | 8.64
* CN1C2CCC1CC(OC(=O)n1c(=O)[nH]c3ccc(F)cc31)C2 (stereo unspecified) | 7.47

Query compound follows.
Q. Entry CN1C2CCCC1CC(OC(=O)n1c(=O)[nH]c3ccccc31)C2.Cl (stereo unspecified) needs its pKi filled in; supply it.
A. 8.66

====

Kindly supply the reported log10 Ki values for the records listed here.
Target: Serotonin 3 (5-HT3) receptor (Rattus norvegicus, UniProt P35563+Q9JJ16)
Sequence (P35563 whole entry): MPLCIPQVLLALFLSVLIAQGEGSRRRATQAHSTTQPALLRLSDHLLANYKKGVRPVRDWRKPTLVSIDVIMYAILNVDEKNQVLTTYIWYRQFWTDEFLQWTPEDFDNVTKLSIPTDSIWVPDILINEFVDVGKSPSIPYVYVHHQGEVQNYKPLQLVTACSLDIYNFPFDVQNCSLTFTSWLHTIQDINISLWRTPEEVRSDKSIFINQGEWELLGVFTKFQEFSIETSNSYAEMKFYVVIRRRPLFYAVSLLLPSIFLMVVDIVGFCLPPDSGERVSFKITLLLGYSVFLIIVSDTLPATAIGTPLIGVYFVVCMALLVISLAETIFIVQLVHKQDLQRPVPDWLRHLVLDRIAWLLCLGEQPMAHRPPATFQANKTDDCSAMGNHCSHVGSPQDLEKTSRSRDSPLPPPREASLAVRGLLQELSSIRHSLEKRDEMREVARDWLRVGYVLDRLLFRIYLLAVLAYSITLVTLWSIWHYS
Sequence (Q9JJ16 whole entry): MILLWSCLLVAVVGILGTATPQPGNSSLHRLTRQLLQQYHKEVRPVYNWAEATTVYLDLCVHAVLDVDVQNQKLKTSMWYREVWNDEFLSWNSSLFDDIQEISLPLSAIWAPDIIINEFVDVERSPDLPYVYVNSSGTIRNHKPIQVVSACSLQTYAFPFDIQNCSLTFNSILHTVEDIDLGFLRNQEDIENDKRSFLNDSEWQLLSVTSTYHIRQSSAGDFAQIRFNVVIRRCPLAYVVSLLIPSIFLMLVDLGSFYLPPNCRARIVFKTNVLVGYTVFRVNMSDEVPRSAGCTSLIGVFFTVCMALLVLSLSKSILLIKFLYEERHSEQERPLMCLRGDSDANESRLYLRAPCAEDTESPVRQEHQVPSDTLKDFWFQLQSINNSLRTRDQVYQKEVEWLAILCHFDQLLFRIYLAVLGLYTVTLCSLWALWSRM
Assay: Concentration that inhibits the binding of radioligand, [3H]-ICS 205930, to 5-hydroxytryptamine 3 receptor from rat cortex
Would you kindly interpret these values as log10 of Ki expressed in nM?

These recorded examples may help you get a feel for the data.
- O=C(NC1CCN2CCCC1C2)n1c(=O)[nH]c2ccccc21 (centres undefined): 1.31
- CN1[C@@H]2CC[C@H]1C[C@@H](OC(=O)c1cc(Cl)cc(Cl)c1)C2: 1.39
- CCn1c(=O)n(C(=O)OC2CC3CCC(C2)N3C)c2ccccc21 (centres undefined): 1.26
- CN1[C@@H]2CC[C@H]1C[C@@H](OC(=O)c1c[nH]c3ccccc13)C2: 0.23
- CN1C2CCCC1CC(NC(=O)n1c(=O)[nH]c3ccccc31)C2.Cl (centres undefined): 0.18

Your task in this section: give log10 Ki for each listed record.
1. CN1CCC(NC(=O)n2c(=O)[nH]c3ccccc32)CC1
2. CN1C2CCCC1CC(NC(=O)n1c(=O)n(C)c3ccccc31)C2 (centres undefined)
3. CN1C2CCC1CC(OC(=O)n1c(=O)[nH]c3ccccc31)C2 (centres undefined)
4. CN1C2CCCC1CC(NC(=O)n1c(=O)[nH]c3ccccc31)C2 (centres undefined)
5. C[N+]1(C)C2CCC1CC(OC(=O)n1c(=O)[nH]c3ccccc31)C2 (centres undefined)

A.
[2.64, -0.05, 1.33, 2.11, 1.53]
